ASSAY_INFO: protein stability index of a GFP-peptide fusion (GPS, HEK-293T) (PSI 1-6); higher = more stable;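 also: 24-mer peptide tiles fused after GFP, lentivirally expressed, FACS-sorted into six equal bins by GFP/DsRed ratio, decoded by Illumina sequencing, PSI is the read-weighted mean bin number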
DETAILS: treatment: DMSO; c terminus: a fixed tail appended
Provide the reported protein stability index of each item.
One number for each entry.

# RESIDUE_SEQUENCE, NUMBER
data = [
    ("NKGTETDNDPSCVHPIIKRRQCRP [PHTF1]", 4.88),
    ("SMLLQRFSVAPHETQTQRGGEFQC [RNF180]", 3.05),
    ("FSGCLNCSKVSELTERLKVLEAKM [EMID1]", 2.83),
]

Below are 2 sequences. Give each one its protein stability index.
1. DQNRDGFIDKEDLKDTYASLGKTN [MYL5]
2. LGRFSLTPAEGDTEEDDGFVDILE [CDC25B]

1. 5.12
2. 4.66
